# experimental_system: T1, human PD-L1 ECD-His (human, UniProt Q9NZQ7 19-238)
# T1 construct: extracellular domain; Analyte in all SPR and BLI runs; also called hPD-L1_ECD-His; hPD-L1 ECD-His; not shown: His tag
# T1 sequence (Q9NZQ7 19-238): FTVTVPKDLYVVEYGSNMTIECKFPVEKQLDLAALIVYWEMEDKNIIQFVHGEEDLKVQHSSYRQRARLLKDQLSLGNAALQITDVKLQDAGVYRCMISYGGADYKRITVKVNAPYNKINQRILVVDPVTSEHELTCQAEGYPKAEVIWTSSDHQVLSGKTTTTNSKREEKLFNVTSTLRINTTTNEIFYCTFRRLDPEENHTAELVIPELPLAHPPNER
# experiment: BLI Octet RED96, antibody on AHC anti-human-Fc sensor, hPD-L1-His analyte, 1:1 fit
quantity_name: koff
Please answer using the number first and the unit second.

If you can, please state the reported koff value of PL3#7-19 deglyco1 mtIgG1 (antibody, V domains shown, N297A mutant human IgG1; also called PL3#7-19 deglycol) VH: QVQLVQSGAEVKKPGSSVKVSCKASGGTFSSYPISWVRQAPGQGLEWMGRIIPILGIANYAQKFQGRVTITADKSTSTAYMELSSLRSEDTAVYYCARSRDGYAFGAFDVWGQGTLVTVSS VL: QSVVTQPPPVSGAPGQRVTISCTGSSSNIGGGYDVHWYQQLPGTAPKLLIYGNSNRPSGVPDRFSGSKSGTSASLAITGLQAEDEADYYCQTYDSSLSATVVFGGGTKLTVLG . 0.000162 s⁻¹
